- assay-system: APOL1 G2 (Homo sapiens, UniProt O14791, DEL388-389)
- Sequence (O14791 with tags, fused parts or gaps DEL388-389): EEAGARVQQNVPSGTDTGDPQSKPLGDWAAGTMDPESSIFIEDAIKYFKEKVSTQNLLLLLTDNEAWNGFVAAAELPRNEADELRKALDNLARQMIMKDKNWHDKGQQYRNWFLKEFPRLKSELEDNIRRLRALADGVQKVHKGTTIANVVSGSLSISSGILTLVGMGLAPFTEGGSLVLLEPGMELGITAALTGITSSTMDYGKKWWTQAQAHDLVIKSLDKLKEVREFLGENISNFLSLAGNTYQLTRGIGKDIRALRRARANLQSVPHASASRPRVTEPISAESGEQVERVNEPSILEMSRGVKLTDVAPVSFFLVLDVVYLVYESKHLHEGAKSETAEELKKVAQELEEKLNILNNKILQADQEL
- assay-overview: Rescue of HEK293 cell death caused by overexpression of APOL1 (CellTiter-Glo luminescence), HEK293/T-REx APOL1 G2/clone #2
- experimental-conditions: reversal of cell death caused by overexpression of APOL1; geometric mean of at least 2 assay runs, † = single assay run (technical duplicate)
metric-name: EC50

>>> result("CN(c1ccc(OC[C@H](O)CN2CCOC(c3cccc(Cl)c3)C2)cc1)S(C)(=O)=O (single isomer, unassigned) [Compound 84]")
"> 30 µM"
>>> result("CN(c1ccc(OC[C@H](O)CN2CCC(c3cccc(Cl)c3)C2)cc1)S(C)(=O)=O (single isomer, unassigned) [Compound 79]")
"> 13.7 µM"
>>> result("C[C@]1(O)CN(CCc2cccc(Cl)c2)C[C@@H]1COc1ccc(S(C)(=O)=O)cc1 (single isomer, unassigned)")
"> 30 µM"
>>> result("CC1CC(COc2ccc(S(C)(=O)=O)cc2)CN1CCc1cccc(Cl)c1 (single isomer, unassigned) [Compound 58]")
"< 0.041 µM"

----------
- assay-system: APOL1 G2 (Homo sapiens, UniProt O14791, DEL388-389)
- assay-overview: Rescue of HEK293 cell death caused by overexpression of APOL1 (CellTiter-Glo luminescence), HEK293/T-REx APOL1 G2/clone #2
- experimental-conditions: reversal of cell death caused by overexpression of APOL1; geometric mean of at least 2 assay runs, † = single assay run (technical duplicate)
metric-name: EC50

>>> result("CS(=O)(=O)c1ccc(OC[C@H]2CN(CCc3cccc(Cl)c3)CCN2)cc1 [Compound 14]")
"> 30 µM"
>>> result("COC1CCN(CCc2cccc(Cl)c2)CC1COc1ccc(S(C)(=O)=O)cc1 (single isomer, unassigned) [Compound 33]")
"> 8.67 µM"
>>> result("C[C@H]1CN(CCc2cccc(Cl)c2)C[C@@H]1COc1ccc(N(C)S(C)(=O)=O)cc1 (racemic) [Compound 45]")
"< 0.0137 µM"
